molecular target: pooled human IgG
Readout name: Enzyme Activity Endpoint Assay (purified): IgG

PRT-64 (protein) MANQEIRYSEVTPYHVTSVWTKGVTPPANFTQGEDVFHAPYVANQGWYDITKTFNGKDDLLCGAATAGNMLHWWFDQNKDQIDRYLEEHPEKQKINFNGEQMFDVKEAIDTKNHQLDSKLFEYFKEKAFPYLSTKHLGVFPDHVIDMFINGYRLSLTNHGPTPVKEGSKDPRGGIFDAVFTRGDQSKLLTSRHDFKEKNLKEISDLIKKELTEGKALGLSHTYANVRINHVINLWGADFDSNGNLKAIYVTDSDSNASIGMKKYFVGVNSAGKVAISAKEIKEDNIGAQVLGLFTLSTGQDSWNQTN: 16 ng/µL
